# TARGET_DESC: T1, TIM-3 protein on human peripheral blood mononuclear lymphocytes (PBMC) (human, UniProt Q8TDQ0 22-301)
# T1 sequence: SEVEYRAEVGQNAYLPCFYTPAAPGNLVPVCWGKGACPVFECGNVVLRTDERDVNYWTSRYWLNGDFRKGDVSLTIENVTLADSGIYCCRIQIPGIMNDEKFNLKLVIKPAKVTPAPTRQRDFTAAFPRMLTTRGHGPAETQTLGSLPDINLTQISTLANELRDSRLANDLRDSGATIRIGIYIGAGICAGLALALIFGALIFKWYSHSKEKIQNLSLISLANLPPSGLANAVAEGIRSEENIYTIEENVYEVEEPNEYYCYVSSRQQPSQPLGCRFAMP
# RUN_DESCRIPTION: cell-based or functional assay
VALUE_KIND: IFN-γ production (donor X); antibody 0.1 µg/ml, N = 2 (pg/mL)
Numbers only here, please. The scale is pg/mL.

Look over these answered cases.
{"columns": ["BINDER", "QUANTITATIVE_READOUT"],
 "data": [
  ["57F4E5 fully human TIM-3 antibody (human IgG4, kappa) (antibody, V domains shown) VH: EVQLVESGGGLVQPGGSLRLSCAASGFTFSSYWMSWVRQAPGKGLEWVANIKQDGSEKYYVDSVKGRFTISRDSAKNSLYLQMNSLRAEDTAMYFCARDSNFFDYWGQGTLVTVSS VL: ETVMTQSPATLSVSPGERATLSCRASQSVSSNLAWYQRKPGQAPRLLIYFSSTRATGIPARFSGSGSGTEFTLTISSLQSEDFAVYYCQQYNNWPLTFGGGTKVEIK", 2980],
  ["39E5H1 fully human TIM-3 antibody (human IgG4, kappa) (antibody, V domains shown) VH: EVQLVESGGGLVQPGGSLRLSCAASGFTFSSYWMSWVRQAPGKGLEWVANIKRGGSERYYVDSVKGRFTISGDNAKNSVYLQMNSLRAEDTAVYYCARGSNWFDPWGQGTLVTVSS VL: ETVMTQSPAILSVSPGERATLSCRASQSVYSNLAWYQQKLGQAPRLLIYDASTRATGIPARFSGSGSGTEFTLTISSLQSEDFAVYYCQQYNNWPITFGQGTRLEIK", 2880],
  ["7A4F10 fully human TIM-3 antibody (human IgG4, kappa) (antibody, V domains shown) VH: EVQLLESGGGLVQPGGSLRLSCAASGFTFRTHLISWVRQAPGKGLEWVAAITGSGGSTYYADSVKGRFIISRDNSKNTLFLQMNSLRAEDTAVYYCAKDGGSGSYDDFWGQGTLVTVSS VL: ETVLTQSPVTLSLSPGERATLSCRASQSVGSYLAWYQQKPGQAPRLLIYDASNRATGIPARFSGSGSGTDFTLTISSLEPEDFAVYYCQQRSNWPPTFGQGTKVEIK", 2730],
  ["18D2H2 fully human TIM-3 antibody (human IgG4, kappa) (antibody, V domains shown) VH: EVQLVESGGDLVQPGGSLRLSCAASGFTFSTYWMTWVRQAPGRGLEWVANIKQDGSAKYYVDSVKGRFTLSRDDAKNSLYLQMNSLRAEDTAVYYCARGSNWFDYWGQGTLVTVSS VL: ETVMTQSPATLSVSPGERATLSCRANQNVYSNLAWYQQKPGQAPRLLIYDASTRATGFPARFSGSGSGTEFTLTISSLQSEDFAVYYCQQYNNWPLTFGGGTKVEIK", 2650],
  ["34B6D8 fully human TIM-3 antibody (human IgG4, kappa) (antibody, V domains shown) VH: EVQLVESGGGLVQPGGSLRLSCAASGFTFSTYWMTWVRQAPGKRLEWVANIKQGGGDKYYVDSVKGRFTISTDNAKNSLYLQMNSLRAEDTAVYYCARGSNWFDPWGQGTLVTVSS VL: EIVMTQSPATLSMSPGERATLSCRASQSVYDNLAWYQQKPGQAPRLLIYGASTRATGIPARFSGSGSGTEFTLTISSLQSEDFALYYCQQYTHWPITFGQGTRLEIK", 2820]
]}

Pending binder:
Lookup: Identify measured IFN-γ production (donor X); antibody 0.1 µg/ml, N = 2 corresponding to 134H3G6 fully human TIM-3 antibody (human IgG4, kappa) (antibody, V domains shown) VH: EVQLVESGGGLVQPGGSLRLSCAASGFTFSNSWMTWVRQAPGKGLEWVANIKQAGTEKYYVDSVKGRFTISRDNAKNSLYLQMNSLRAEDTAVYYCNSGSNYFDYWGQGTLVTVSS VL: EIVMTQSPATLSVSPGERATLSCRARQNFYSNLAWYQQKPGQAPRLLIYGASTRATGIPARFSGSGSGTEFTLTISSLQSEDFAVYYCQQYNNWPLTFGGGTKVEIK
Found: 2720
